System: Acinetobacter baumannii ATCC 17978
Test: Antimicrobial susceptibility testing: 90% growth inhibitory concentration (IC90) determination
Type: cell-based
Details: Acinetobacter baumannii, ATCC17978, 16 h, 90% growth inhibitory concentration; Acinetobacter baumannii ATCC17978; Iso-Sensitest broth, OD 600 nm over 16h; read-out: ATCC17978 IC90
Procedure: Antimicrobial Susceptibility Testing: 90% Growth Inhibitory Concentration (IC90) Determination The in vitro antimicrobial activity of the compounds was determined according to the following procedure: The assay used a 10-points Iso-Sensitest broth medium to measure quantitatively the in vitro activity of the compounds against Acinetobacter baumannii ATCC 17978 and Acinetobacter baumannii ATCC 17961. […]
Counter-ions that a name gives are not always drawn.
Reported values of IC90 for individual entries
MEASUREMENT LABEL: IC90

>>> print(df.to_string())
                                    compound  measurement_label  result_value
 0  CCc1cc(Nc2nccn3c(-c4ccc(OC)c(F)c4F)cnc23)ccc1C(=O)NCCCNC(=O)C(CNC(=N)N)NC(=O)[C@@H](N)CCC(=O)O (mixture of isomers)               IC90        340 nM
 1  COc1ccc(-c2cnc3c(Nc4ccc(C(=O)N(C)CCC(=O)N5CCNCC5)c(C)c4)nccn23)cc1F               IC90        210 nM
 2  CCc1cc(Nc2nccn3c(-c4ccc(OC)c(F)c4F)cnc23)ccc1C(=O)N[C@H](C)CN [Example 101, dihydrochloride]               IC90        240 nM
 3  N#CCOc1ccc(-c2cnc3c(Nc4ccc(C(=O)NCCc5ccncc5)c(Cl)c4)nccn23)c(F)c1F               IC90         90 nM
 4  C=Cc1cc(Nc2nccn3c(-c4ccc(OC(F)F)cc4)cnc23)ccc1C(=O)N(C)CCN1CCNCC1               IC90        840 nM
 5  COc1ccc(-c2cnc3c(Nc4ccc(C(=O)N(C)CC5CCNCC5)c(C)c4)nccn23)cc1F               IC90        630 nM
 6  CCc1cc(Nc2nccn3c(-c4ccc(OC)c(F)c4F)cnc23)ccc1C(=O)NCCNC(=O)NCCN               IC90        560 nM
 7  CCc1cc(Nc2nccn3c(-c4ccc(OC)c(F)c4F)cnc23)ccc1C(=O)NCCCO[C@@H]1O[C@H](CO)[C@H](O)[C@H](O)[C@H]1N               IC90        110 nM
 8  CCc1cc(Nc2nccn3c(-c4ccc(OC(F)F)c(F)c4F)cnc23)ccc1C(=O)NCCCO[C@@H]1O[C@H](CO)[C@@H](O)[C@H](O)[C@H]1O               IC90        410 nM
 9  CCc1cc(Nc2nccn3c(-c4ccc(OC)c(F)c4F)cnc23)ccc1C(=O)NCCNC(=O)N1CCN[C@H](C(=O)O)C1               IC90       1200 nM
10  CCc1cc(Nc2nccn3c(-c4ccc(OC)c(F)c4F)cnc23)ccc1C(=O)NCC(O)CNC(=O)[C@@H](N)CN (mixture of isomers)               IC90        520 nM
11  Cc1cc(Nc2nccn3c(-c4ccc(OCC#N)c(F)c4F)cnc23)ccc1C(=O)NCCCNC(=O)[C@@H]1C[C@@H](O)CN1               IC90         50 nM
12  CCc1cc(Nc2nccn3c(-c4ccc(Oc5ccc(OC)cn5)c(F)c4F)cnc23)ccc1C(=O)NCCNC(=O)[C@@H](N)CCNC(=N)N               IC90        530 nM
